Listing of recorded SK-Br-3 pHER3 % inhibition by entry.
# measurement target: human HER3 endogenously expressed on human cancer cells (SK-Br-3, BT-474, MCF7) (human, UniProt P21860 20-1342)
# protocol text: cell-based or functional assay
# value in %; strip the unit string

MOR13663 (antibody, human IgG1, lambda, V domains shown) VH: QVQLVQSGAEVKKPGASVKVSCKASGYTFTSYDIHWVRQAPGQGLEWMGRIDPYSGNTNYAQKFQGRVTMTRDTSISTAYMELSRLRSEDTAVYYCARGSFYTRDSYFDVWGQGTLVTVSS VL: DIALTQPASVSGSPGQSITISCTGTSSDVGTYNQVSWYQQHPGKAPKLMIYGVSKRPSGVSNRFSGSKSGNTASLTISGLQAEDEADYYCSVWTSIKVFVFGGGTKLTVLG
56
MOR12604 (antibody, V domains shown, Tested as IgG) VH: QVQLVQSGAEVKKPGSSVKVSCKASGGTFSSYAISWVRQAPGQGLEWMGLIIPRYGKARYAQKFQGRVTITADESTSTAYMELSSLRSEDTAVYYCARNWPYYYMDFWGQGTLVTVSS VL: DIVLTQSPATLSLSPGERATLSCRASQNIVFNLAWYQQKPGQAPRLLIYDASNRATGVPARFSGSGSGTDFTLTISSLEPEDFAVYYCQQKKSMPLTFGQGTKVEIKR
71
MOR14533 (antibody, human IgG1, kappa, V domains shown, Tested as IgG) VH: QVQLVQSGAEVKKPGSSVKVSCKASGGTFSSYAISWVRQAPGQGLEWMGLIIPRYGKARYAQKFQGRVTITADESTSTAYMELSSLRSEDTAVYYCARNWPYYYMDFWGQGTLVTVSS VL: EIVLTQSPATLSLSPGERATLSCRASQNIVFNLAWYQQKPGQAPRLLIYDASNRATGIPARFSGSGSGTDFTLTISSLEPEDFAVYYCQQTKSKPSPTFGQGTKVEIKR
68
MOR12615 (antibody, human IgG1, lambda, V domains shown, Tested as IgG) VH: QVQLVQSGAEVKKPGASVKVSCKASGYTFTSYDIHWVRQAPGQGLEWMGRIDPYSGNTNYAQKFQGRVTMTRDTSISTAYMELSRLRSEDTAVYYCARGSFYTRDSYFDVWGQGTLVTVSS VL: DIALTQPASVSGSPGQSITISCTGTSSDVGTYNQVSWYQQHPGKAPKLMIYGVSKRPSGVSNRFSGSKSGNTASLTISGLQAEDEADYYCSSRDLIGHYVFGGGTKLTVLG
71

Read the next record carefully.
Request: Quick one: SK-Br-3 pHER3 % inhibition of MOR13659 (antibody, human IgG1, lambda, V domains shown) VH: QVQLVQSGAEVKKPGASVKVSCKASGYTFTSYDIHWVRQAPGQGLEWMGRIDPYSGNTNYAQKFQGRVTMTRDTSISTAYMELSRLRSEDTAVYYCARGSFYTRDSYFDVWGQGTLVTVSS VL: DIALTQPASVSGSPGQSITISCTGTSSDVGTYNQVSWYQQHPGKAPKLMIYGVSKRPSGVSNRFSGSKSGNTASLTISGLQAEDEADYYCGSRTSHNWVFGGGTKLTVLG ?
Result: 51
